Entries and their growth
- System: SN12C renal
- TEST SUMMARY: NCI-60 one-dose screen, 48 h (100 = growth as untreated, 0 = no growth, -100 = all killed)
- COND: 10 µM unless noted
About 83,000 compounds went through this panel and 20% of them were active in at least one assay; those are over-represented in the sample as a whole.
Provide the reading as a plain figure in %.

CC(C)(C)[Si](C)(C)OC1[C@@H](O[Si](C)(C)C(C)(C)C)[C@@H](CNC(=O)NC(=O)CF)O[C@H]1n1cnc2c(NC(=O)Nc3ccccc3)ncnc21 (stereo partly specified) :: 44.3
OC1CCCCC1N1CCC(c2ccccc2)CC1 (stereo unspecified) :: 109
c1cnc2c(c1)ccc1ncccc12 :: 95.3
O=C1NC(=O)C(=Cc2cn(Cc3ccccc3)c3ccccc23)C(=O)N1 :: 88.8
FC(F)=C(F)c1ccccc1 :: 112
CC(/C=N/N=C(N)N)=N/N=C(N)N :: 94.9
ClCCN(CCCl)C(c1ccccc1)c1ccc(Cl)cc1 (stereo unspecified) :: 41.1
CCOc1c(Cl)cc(CNC(C)C(O)c2ccccc2)cc1OC (stereo unspecified) :: 79.8
Cc1cc(NC(=O)CCc2ccc(N3C(N)=NC(N)=NC3(C)C)cc2)ccc1S(=O)(=O)F :: 32.8
CC[C@@H](C)/C=C(C)/C=C/C(=O)c1c(O)c(-c2ccc(O)cc2)cn(O)c1=O :: 13.6

Consider now this further compound.
Exam item: Tell me the measured growth of Cc1cc(C)nc(C)c1.[Cl][Hg][Cl] , please.
Marked response: 104
